Listed here are compounds together with their documented TGI.
system: UACC-62 melanoma; assay: NCI tumour cell line growth inhibition, 48 h

Worked cases, TGI given:
compound=COC[C@@H](N=CC(C)(C)C)C(C)C value="> 100 µM"
compound=CCC(=O)CC(=O)CCC(=O)Nc1cc(C)ccc1C value="> 100 µM"
compound=CC(=O)c1ccccc1NP(=O)(c1ccccc1)c1ccccc1 value="> 100 µM"

TGI recorded for this compound, O=c1/c(=C/c2ccccc2[N+](=O)[O-])sc2nnc(-c3ccco3)n12 , is > 100 µM

TGI recorded for this compound, N#C[C@H](c1ccccn1)c1nc2ccccc2nc1Cl , is > 100 µM

TGI recorded for this compound, CCOC(=O)CCC(NC(=O)Cc1ccc(Nc2nc3cc(F)c(F)cc3nc2C(=O)OCC)cc1)C(=O)OCC (configuration not stated) , is > 100 µM

TGI recorded for this compound, O=c1oc2ccc3ccccc3c2cc1-c1nc2ccccc2s1 , is > 100 µM

###

Listed here are compounds together with their documented TGI.
system: HCT-15 colon; experiment: NCI tumour cell line growth inhibition, 48 h

Worked cases, TGI given:
compound=Cn1c(I)c(C#CCO[Si](C)(C)C(C)(C)C)c(=O)[nH]c1=O value="27.6 µM"
compound="N=C(N)C1CN(CCc2c[nH]c3ccccc23)C(=O)NC1=O (centres undefined)" value="> 100 µM"
compound="Cn1c(=O)c2c(ncn2CCNC(CO)C(O)c2ccc([N+](=O)[O-])cc2)n(C)c1=O (centres undefined)" value="> 100 µM"

TGI recorded for this compound, CC1(C)/C(=N\NC(N)=O)C2CCC1C2 (centres undefined) , is > 100 µM

TGI recorded for this compound, O=C1c2ccccc2C(=O)c2c(NCC(O)CO)ccc(NCC(O)CO)c21 (centres undefined) , is > 100 µM

TGI recorded for this compound, COC(=O)COc1ccccc1/C=C1\N=C(c2ccccc2)N(c2cc(C(F)(F)F)ccc2Cl)C1=O , is > 100 µM

TGI recorded for this compound, Nc1c(C(=O)O)nnc2ccc(Cl)cc12 , is > 100 µM

TGI recorded for this compound, CC[As](CC)SC[C@H](C)C(=O)N1CCC[C@H]1C(=O)O , is 0.194 µM

TGI recorded for this compound, Cc1ccc(/C=N/Nc2cc(C)c3cccc(C)c3n2)s1 , is 17.4 µM

###

tested on: NCI-H23 lung; assay: NCI tumour cell line growth inhibition, 48 h; in the data active = GI50 below about 0.43 µM; inactive = the rest
Hi there, use one of these labels in your reply, thanks! TRUE for active, FALSE for inactive

Example cases with answers are listed next.
testsmiles=CCOC(=O)C1=CN(C)C=C(C(=O)OCC)C1c1cc(Br)c(OCC)c(OC)c1 class=FALSE
testsmiles=CC/C=C\C[C@H](O)C/C=C1/C(=O)C(Cl)=C[C@@H]1C/C=C\CCCC(=O)OC class=FALSE

Problem: What call does the record list for CC[As](CC)SC[C@H](C)C(=O)N1CCC[C@H]1C(=O)O ?
Solution: TRUE

Problem: What call does the record list for O=C(O)COc1ccc2c(=O)c3sc4c(=O)c5ccccc5c(=O)c4c3c(=O)c2c1 ?
Solution: FALSE

###

Listed here are compounds together with their documented TGI.
system: HCT-116 colon; assay: NCI tumour cell line growth inhibition, 48 h

compound=CCOC(=O)c1cnc2c(ccc3[nH]n(C)nc32)c1=O parametermeasured=TGI value="61.4 µM"
compound=Cc1c(O)ccc2c(O)c(NC(=O)c3ccc4c(c3)CCC(C)(C)O4)c(=O)oc12 parametermeasured=TGI value="> 100 µM"

Turning now to a further record.
TGI recorded for this compound, NC(CCCCCP(=O)(c1ccccc1)C1C=CC=CC1)C(=O)O (stereo not drawn) , is > 100 µM

Entry source: PubChem BioAssay (NCI)
